Provenance of the data: PubChem BioAssay (NCI)

System: U251 CNS
Assay: NCI tumour cell line growth inhibition, 48 h
REPORTED PROPERTY: TGI (µM)
// units = µM; emit number, no label

>  <MOLECULE>
COc1ccc2c(c1)-c1nn(CCN(C)C)c3ccc(C(=O)NCCCN(C)CCCNC(=O)c4ccc5c6c(nn5CCN(C)C)-c5cc(OC)ccc5Nc46)c(c13)N2

>  <SYSTEM NAME>
U251 CNS

>  <REPORTED PROPERTY>
TGI

>  <REPORTED>
0.825

$$$$
>  <MOLECULE>
CN1C(=O)C(c2c[nH]c3ccccc23)=C(c2c(-c3c[nH]c4ccccc34)[nH]c3ccccc23)C1=O

>  <SYSTEM NAME>
U251 CNS

>  <REPORTED PROPERTY>
TGI

>  <REPORTED>
9.61

$$$$
>  <MOLECULE>
CN(C)CC(NC(NCS)C(=O)NCCNc1ccc(NCCNC(=O)C(NCS)NC(CN(C)C)OCCl)c2c1C(=O)c1c(O)ccc(O)c1C2=O)OCCl (stereo not given)

>  <SYSTEM NAME>
U251 CNS

>  <REPORTED PROPERTY>
TGI

>  <REPORTED>
0.0575

$$$$
>  <MOLECULE>
Cc1ccc(Oc2nc3ccccc3cc2-c2nnc(Cn3c(COc4ccccc4)nc4ccccc43)o2)cc1

>  <SYSTEM NAME>
U251 CNS

>  <REPORTED PROPERTY>
TGI

>  <REPORTED>
3.62

$$$$

[Q] Consider the molecule O=C(/C=C\c1ccc2ccccc2n1)c1cc(Cl)ccc1O tested on U251 CNS; state its TGI.
[A] 5.2

###

Test system: UACC-257 melanoma
Assay: NCI tumour cell line growth inhibition, 48 h; in the data active = GI50 below about 0.43 µM; inactive = the rest
I would appreciate it if you answered using one of these outcomes: active, inactive

>  <STRUCTURE SMILES STRING>
COc1ccc2c(c1)C(=O)c1c-2n(CCCN2CCOCC2)c(=O)c2cc([N+](=O)[O-])ccc12

>  <CATEGORY>
active

$$$$
>  <STRUCTURE SMILES STRING>
CCC[CH2][Sn]1([CH2]CCC)[O]C(=O)CN=Cc2ccccc2[O]1

>  <CATEGORY>
active

$$$$
>  <STRUCTURE SMILES STRING>
COc1ccc2[nH]cc(-c3nc(-c4c[nH]c5ccncc45)cs3)c2c1

>  <CATEGORY>
inactive

$$$$
>  <STRUCTURE SMILES STRING>
COc1cc(/C=C2\C(=O)Nc3ccccc32)cc(OC)c1OC

>  <CATEGORY>
inactive

$$$$

Consider the additional compound presented here.
[Q] Outcome? COc1cc(OC)cc(-c2cncn2-c2ccc(-c3nc4cc(OC)cc(OC)c4s3)cc2)c1
[A] inactive

###

System: SR leukemia
Experiment: NCI tumour cell line growth inhibition, 48 h; in the data active means GI50 below about 0.43 µM; inactive means the rest
I would appreciate it if you answered using one of these outcomes: active, inactive

>  <COMPOUND>
CC1(C)[C@@H]2C[C@H]1C(Cc1cccc(C[C@H]3c4cc(-c5ccccn5)ncc4[C@H]4C[C@@H]3C4(C)C)c1)c1cc(-c3ccccn3)ncc12 (some centres undefined)

>  <CATEGORY>
inactive

$$$$
>  <COMPOUND>
Oc1cc(Cl)ccc1Cc1ccc(Cl)cc1O

>  <CATEGORY>
inactive

$$$$
>  <COMPOUND>
Oc1ccc(CN(Cc2ccc(C(F)(F)F)cc2)Cc2ccc(O)c3ncccc23)c2cccnc12

>  <CATEGORY>
active

$$$$

[Q] Outcome? COc1ccc(/C=C\c2cc(OC)c(OC)c(OC)c2)cc1OCC(=O)Nc1nc2ccc(OC(F)(F)F)cc2s1
[A] inactive

[Q] Outcome? CCC(=O)c1ccc2c(c1)N(CCCN1CCN(CCO)CC1)c1ccccc1S2
[A] inactive

[Q] Outcome? C=C1C(=O)O[C@H]2C[C@@H]1CCC1(C)OC1CC/C(C)=C/CC[C@H]2C (some centres undefined)
[A] inactive

[Q] Outcome? COc1cc(OC)cc(-c2cncn2-c2ccc(-c3nc4cc(OC)cc(OC)c4s3)cc2)c1
[A] inactive

[Q] Outcome? Nc1ccc(-n2c(=O)oc3ccc(Cl)cc3c2=O)c(Cl)c1
[A] active

[Q] Outcome? CC(C)CCC[C@@H](C)[C@H]1CCC2C3=CCC4C(=O)C=CC(=O)C4C3CC[C@@]21C (some centres undefined)
[A] active

###

Test system: HCT-15 colon
Experiment: NCI tumour cell line growth inhibition, 48 h
Here the recorded TGI is given for each entry.

Examples with their reported TGI follow.
>  <COMPOUND>
NC(=O)CS(=O)CC(N)C(=O)O (stereo unspecified)

>  <REPORTED PROPERTY>
TGI

>  <REPORTED>
> 100 µM

$$$$
>  <COMPOUND>
CC(C)C(C/C=C1\CC(CO)(COC(=O)CC(C(C)C)C(C)C)OC1=O)C(C)C (stereo unspecified)

>  <REPORTED PROPERTY>
TGI

>  <REPORTED>
34.9 µM

$$$$
>  <COMPOUND>
O=C1C=CC(=O)c2c1ncc1c2nc2sccn21

>  <REPORTED PROPERTY>
TGI

>  <REPORTED>
39.5 µM

$$$$
>  <COMPOUND>
CCOC(=O)C(C)c1nc2cc(N3CCN(C)CC3)c(F)cc2[nH]c1=O (stereo unspecified)

>  <REPORTED PROPERTY>
TGI

>  <REPORTED>
> 100 µM

$$$$
>  <COMPOUND>
NC1=C(Cl)C(=O)c2ccccc2C1=O

>  <REPORTED PROPERTY>
TGI

>  <REPORTED>
12.2 µM

$$$$
>  <COMPOUND>
COc1cc(-c2n/c(=C\c3c(O)[nH]c4ccccc34)cc3c2=Nc2ccccc2-3)cc(OC)c1OC

>  <REPORTED PROPERTY>
TGI

>  <REPORTED>
> 100 µM

$$$$
>  <COMPOUND>
O=C(CCCn1ccnc1[N+](=O)[O-])NCCn1ccnc1[N+](=O)[O-]

>  <REPORTED PROPERTY>
TGI

>  <REPORTED>
> 100 µM

$$$$
>  <COMPOUND>
O=C(/C=C/c1ccccc1O)/C=C/c1ccccc1O

>  <REPORTED PROPERTY>
TGI

>  <REPORTED>
5.1 µM

$$$$
>  <COMPOUND>
COc1cc2ncn(-c3cc(OCc4ccccc4S(C)(=O)=O)c(C#N)s3)c2cc1OC

>  <REPORTED PROPERTY>
TGI

>  <REPORTED>
> 25 µM

$$$$
>  <COMPOUND>
CN1CC2CC(C1)c1cccc(=O)n1C2 (stereo unspecified)

>  <REPORTED PROPERTY>
TGI

>  <REPORTED>
> 100 µM

$$$$

[Q] Quote TGI reported for O=C(C#Cc1cn(C2CC(O)C(CO)O2)c(=O)[nH]c1=O)c1ccccc1 (stereo unspecified) please.
[A] > 100 µM

###

Test system: TK-10 renal
Assay: NCI tumour cell line growth inhibition, 48 h
REPORTED PROPERTY: TGI

>  <COMPOUND>
Oc1ccc(CN(Cc2ccc(C(F)(F)F)cc2)Cc2ccc(O)c3ncccc23)c2cccnc12

>  <TGI>
> 100 µM

$$$$
>  <COMPOUND>
NC1=NC(c2ccc(F)cc2)C2=C(N1)c1ccc3ccccc3c1OCC2 (configuration not stated)

>  <TGI>
> 100 µM

$$$$
>  <COMPOUND>
C=CCN(CC=C)CC(C(C)=O)C(c1ccccc1)c1c(O)c2ccccc2oc1=O (configuration not stated)

>  <TGI>
> 100 µM

$$$$
>  <COMPOUND>
O=C1O[C@]2(c3ccccc3)C(c3ccccc3)=C[C@]2(C(=O)c2ccccc2)C1=O

>  <TGI>
73.5 µM

$$$$

[Q] Quote TGI reported for Cc1ccc2nc(N/N=C/c3cccc(C)n3)cc(C)c2c1 please.
[A] 30.4 µM

[Q] Quote TGI reported for O=C(/C=C\c1ccc2ccccc2n1)c1cc(Cl)ccc1O please.
[A] 85.3 µM

[Q] Quote TGI reported for O=[N+]([O-])c1ccc(N=Nc2c(O)[nH]c3ccccc23)cc1 please.
[A] > 51.2 µM

[Q] Quote TGI reported for COc1ccc(-c2ccccc2)cc1-c1c(Nc2cc(Cl)cc(Cl)c2O)c(=O)c1=O please.
[A] > 50 µM

[Q] Quote TGI reported for CN1CCC(n2[nH]c(-c3ccccc3)c(Cc3ccccc3)c2=O)CC1 please.
[A] > 100 µM

[Q] Quote TGI reported for COc1ccc2c(c1)-c1oc3ccccc3c(=O)c1CO2 please.
[A] > 100 µM

[Q] Quote TGI reported for O=C(NN1C(=O)C=CC1=O)c1ccccc1Nc1ccccc1C(=O)NN1C(=O)C=CC1=O please.
[A] > 100 µM

[Q] Quote TGI reported for Cc1ccc(C[P+](c2ccccc2)(c2ccccc2)c2ccccc2)cc1 please.
[A] 23.4 µM
